Ref: the supplement of paper PMC9694430

Test system: LOC_OS01G14860-cb001;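 further: purified Escherichia coli-expressed rice kinase domain construct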
Test: thermal shift delta Tm vs DMSO control; higher = stronger stabilization (binding)
Conditions: 12.5 µM; protein concentration 2 µM
Exercise: state measured thermal shift delta Tm for each of the molecules provided.
Record the value in °C, omitting the unit from your answer.

Simply: CC#CC(=O)N1CCC[C@H]1c1nc(-c2ccc(C(=O)Nc3ccccn3)cc2)c2c(N)nccn12 , LOC_OS01G14860-cb001, thermal shift delta Tm = 0.36

Simply: N#C/C(=C\c1ccc(O)c(O)c1)C(=O)NCc1ccccc1 , LOC_OS01G14860-cb001, thermal shift delta Tm = 1.27

Simply: COc1ccc(Oc2cc(NCCC(F)(F)F)c3ncc(-c4ccc(C(=O)NC5CC5)c(C)c4)n3n2)c(F)c1F , LOC_OS01G14860-cb001, thermal shift delta Tm = 0.68

Simply: O=C(c1ccc(F)c(F)c1Nc1ccc(I)cc1F)N1CC(O)([C@@H]2CCCCN2)C1 , LOC_OS01G14860-cb001, thermal shift delta Tm = 0.39

Simply: O=C(c1cccc(Cl)c1F)N1CCN(Cc2cccc(Nc3nccs3)n2)CC1 , LOC_OS01G14860-cb001, thermal shift delta Tm = 4.28

Simply: CN1CCN(c2ccc3nc(-c4c(N)c5c(F)cccc5[nH]c4=O)[nH]c3c2)CC1 [Dovitinib (TKI-258) Dilactic Acid] , LOC_OS01G14860-cb001, thermal shift delta Tm = 1.65

Simply: C[C@@H](Nc1cc(F)cc(F)c1)c1cc(C(=O)N(C)C)cc2c(=O)cc(N3CCOCC3)oc12 , LOC_OS01G14860-cb001, thermal shift delta Tm = 0.22

Simply: CCN(CC)CCCC(C)Nc1nc(C)cc(Nc2ccc3nc(C)cc(N)c3c2)n1 (stereo not drawn) , LOC_OS01G14860-cb001, thermal shift delta Tm = 0.18
